Entries and their measured normalized growth follow.
test: chemical genetic growth profiling, strain panel (AID 1159580);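 further: tested at 20 µM; growth read once vehicle control cultures reached saturation at 30 °C; 1 = growth at the plate median or of vehicle wells; lower values mean less growth of the strain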; details: S. cerevisiae deletion strains, growth OD, locus YKL085W, strain MDH1 (second series), active compounds read low
Screen size: about 5,500 compounds; about 2,000 (36%) were called active. Another 18% or so got no clear call; they are omitted. The list shows a part of the results.
Response field accepts a number only; no unit should be typed.

Completed entries (count: 3):
COMPOUND | normalized growth
C=CCc1ccc(OC(=O)c2ccccc2)c(OC)c1 | 0.981
CN(C)CCN(Cc1ccccc1)c1ccccn1 | 0.978
CCC(C)C(=O)O[C@@H]1C[C@@]2(C)[C@H](c3ccoc3)OC(=O)CC23OC2(C)OC34[C@H](OC(=O)C(C)C)[C@@]3(O)[C@@H](OC(=O)C5(C)OC5C)[C@@]5(C)C[C@]3(O)[C@@](C)([C@H]5CC(=O)OC)C14O2 (some centres not stated) | 1

Note to self: normalized growth recorded for `CN(C)CCN(Cc1cccs1)c1ccccn1` was 0.997

Recorded result, CCC(C)C(=O)OC1CC2(C)C(c3ccoc3)OC(=O)CC23OC2(C)OC34C(OC(=O)C(C)C)C3(O)C(OC(=O)C5(C)OC5C)C5(C)CC3(O)C(C)(C5C(=O)OC)C14O2 (configuration not stated) , normalized growth: 1.01

The reported normalized growth of the compound `COc1ccc(CN(CCN(C)C)c2ccccn2)cc1` was 0.978

get_value(item= COC(=O)C[C@H]1C2(C)CC34OC5(C)O[C@@]6([C@H](OC)C(OC(=O)C(C)C)[C@]7(C)C(/C(=C(/OC)C(C)C)C(=O)O[C@H]7c7ccoc7)[C@@]6(O5)[C@H](OC)[C@@]3(OC)C2OC(C)=O)[C@]14C (some centres not stated) , readout=normalized growth) returns 1.01
